I'd be grateful if you could share measured growth for these entries.
- Test system: ACHN renal
- procedure_text: NCI-60 one-dose screen, 48 h (100 = growth as untreated, 0 = no growth, -100 = all killed)
- test_settings: 10 µM unless noted
The panel holds about 83,000 compounds, 20% with a hit somewhere; the sample as a whole holds those more often.
One number for each entry, in %.

Would you please look over these solved cases?
| record_smiles | growth, % |
| --- | --- |
| Cc1nn(-c2ccccc2)c(Oc2c(Cl)cccc2Cl)c1/C=N/N=c1\sc2ccccc2n1C | 43.7 |
| O=C(Cc1ccccc1)NNc1nc(Cl)nc(N2CCN(C(c3ccccc3)c3ccccc3)CC2)n1 | 94.9 |
| Cc1cc(Cl)nc(N(CCNc2ccnc3cc(Cl)ccc23)Cc2ccccn2)n1 | 44.9 |
| Cc1ccc(-c2nc3ccccn3c2/C=C2/C(=O)Nc3cc(Cl)ccc32)cc1 | 92.3 |

Continue with the compound presented below.
Prompt line: # input compound: "CCN(CC)CC[n+]1cc2cc(OC)c(OC)cc2c2ccc3cc4c(cc3c21)OCO4" ; wanted: its growth
Response line: 8.72

====

- Test system: CAKI-1 renal
- procedure_text: NCI-60 one-dose screen, 48 h (100 = growth as untreated, 0 = no growth, -100 = all killed)
- test_settings: 10 µM unless noted
The panel holds about 83,000 compounds, 20% with a hit somewhere; the sample as a whole holds those more often.
observation_type: growth (%)
Give bare numbers, in %.

Would you please look over these solved cases?
| compound | observation_type | observed_measurement |
| --- | --- | --- |
| C=CC(=O)N[C@@H](/C=C/C(=O)OCC)Cc1ccc(-c2cc(Cl)cc(Cl)c2)cc1 | growth | 35.9 |
| O=S(=O)(NCCNc1nccc(-c2c(-c3cccc(O)c3)nc3occn23)n1)c1ccccc1 | growth | 78.3 |
| CC(=O)CCC(=O)OCc1cc(=O)c(O)co1 | growth | 102 |
| O=C(c1nc2ccccc2[nH]1)C1C(c2ccc(Br)cc2)C2CC3CCCC[C@H]3N2[C@@]12C(=O)Nc1cc(Cl)ccc12 (stereo not given in full) | growth | 17.7 |

Continue with the compound presented below.
Prompt line: # input compound: CC1=CCC(OC(=O)C(C)(O)CCC(O)(C(=O)OC2(C)C=CC(O)(C(C)C)CC2)C(C)C)(C(C)C)CC1 (stereo not given) ; wanted: its growth
Response line: 95

====

I'd be grateful if you could share measured growth for these entries.
- System: SN12C renal
- procedure_text: NCI-60 one-dose screen, 48 h (100 = growth as untreated, 0 = no growth, -100 = all killed)
- test_settings: 10 µM unless noted
The panel holds about 83,000 compounds, 20% with a hit somewhere; the sample as a whole holds those more often.
Numbers only, in %.

Would you please look over these solved cases?
| compound | observed_measurement |
| --- | --- |
| O=C(NCCNc1nccc(-c2c(-c3cccc(F)c3)nc3sccn23)n1)c1ccc(Cl)cc1 | 52.5 |
| COc1ccc(C(C)=O)c(OC)c1 | 106 |
| COc1ccc(NC(N)=NCCCOc2ccc(F)cc2)cc1 | 80.5 |
| Nc1c(S(=O)(=O)O)cc2c3c(cccc13)C(=O)OC2=O | 98.9 |

Field: growth. Fill in for each record below.
1. NNC(=O)c1ccc(-n2nc(-c3ccccc3)c3ccccc32)cc1
2. N#CC1C(C#N)C2c3ccccc3C=CN2C1C(=O)c1ccc(Br)cc1 (stereo unspecified)
3. COc1cccc2c1c1nc3cc(C)c(C)cc3nc1n2CCN(C)C

Response line:
1: 75.1; 2: 88.6; 3: 16.9

Field: growth. Fill in for each record below.
1. CCNC(=O)Oc1ccc(/C(=C(\C)c2ccccc2)c2ccc(OCCCN(C)C)cc2)cc1
2. Cc1cc2nc3c4cccc(O)c4n(CCN(C)C)c3nc2cc1C
3. Cc1ccc(/C=C(/C#N)n2nnc3cccc(F)c32)cc1
4. Cc1ccc(NS(=O)(=O)c2ccc(-c3cnc(C4CC4)o3)cc2)cc1C(F)(F)F

Response line:
[81.1, 29.6, 12.7, 88.6]
